Data provenance is PubChem BioAssay.

Assay: small-molecule microarray binders of probe aXIP, primary screen, biochemical, NeuroSMM set, 635/667 nm fluorescence (AID 1119);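 also: probe is the protein aXip251-270 applied at 1 µg/mL to compound-printed slides; binding of probe to printed compounds measured as 667 nm fluorescence plus signal to noise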
Conditions: higher = more signal, called active from +8 up or from −8 down
Could you label it 1 (yes) if measured composite Z-score is -0.0003 or higher, and 0 (no) otherwise?

Does CO[C@H]1O[C@H](CO)[C@@H](OC(=O)Nc2cccc(F)c2)[C@H](OC(=O)c2cc3ccccc3[nH]2)[C@H]1OC(=O)c1cc2ccccc2[nH]1 have a reported composite Z-score of at least -0.0003?
0 (no)

Does CC1CC/C=C\[C@H]2OC34C=CCN(CCN5CCOCC5)C(=O)[C@H]3N(C(CO)C(C)C)C(=O)[C@@H]4C2C(=O)O1 (stereo partly drawn) have a reported composite Z-score of at least -0.0003?
1 (yes)

Does CC(C)C(=C=CC[C@H](O)c1cccc(OCCO)c1)C[C@H](O)c1ccccn1 have a reported composite Z-score of at least -0.0003?
0 (no)

Does O=C(c1ccccc1)N1Cc2ccccc2C[C@@]2(N=C(c3ccc(OCCCO)cc3)O[C@H]2c2ccccc2)C1=O have a reported composite Z-score of at least -0.0003?
1 (yes)

Does CCOC(=O)C[C@H]1[C@H](OC(=O)c2cc3ccccc3oc2=O)[C@@H](NC(=O)c2ccc(-c3ccccc3)cc2)c2cc(OCCCO)ccc2N1C(=O)Cc1ccc(OC)cc1 have a reported composite Z-score of at least -0.0003?
1 (yes)

Does CO[C@H]1O[C@H](CO)[C@@H](OC(=O)Nc2ccccc2)[C@@H]2OC(=O)[C@@H](Cc3ccccc3)C/C=C/C[C@H](Cc3ccccc3)C(=O)O[C@@H]12 have a reported composite Z-score of at least -0.0003?
1 (yes)

Does COC(=O)C[C@H]1O[C@]2(C(=O)N(C)c3ccccc32)[C@@H](C)[C@@H]1[Si](C)(C)c1ccccc1 have a reported composite Z-score of at least -0.0003?
0 (no)

Does CCCNC(=O)[C@@]1(Sc2ccc(C)cc2)CC(=O)N(Cc2cc(C(F)(F)F)cc(C(F)(F)F)c2)[C@@H]1c1ccc(CO)cc1 have a reported composite Z-score of at least -0.0003?
0 (no)

Does COc1ccc([Si](C)(C)[C@H]2[C@H](CC(=O)N(CCO)Cc3ccccc3)O[C@@]3(C(=O)N(Cc4ccc(N5C(=O)c6cccc7cccc5c67)cc4)c4ccccc43)[C@@H]2C)cc1 have a reported composite Z-score of at least -0.0003?
1 (yes)

Does C[N+](C)(C)CCCC[C@@H]1NC(=O)[C@H]2C[C@@H](C(=O)NCCCCCN)[C@@H](c3ccc(O)cc3)N2C1=O have a reported composite Z-score of at least -0.0003?
0 (no)

Does C=CCNC(=O)[C@H]1[C@@H]2C(=O)O[C@@H](c3ccccc3)[C@@H](c3ccccc3)N2[C@@H](c2ccc(OCCO)cc2)[C@]12C(=O)Nc1ccc(C#Cc3ccc(OC)cc3)cc12 have a reported composite Z-score of at least -0.0003?
1 (yes)

Does O=C1C2C=CC(C(O)C(c3ccccc3)c3ccccc3)N(Nc3ccccc3F)C2C(=O)N1c1ccccc1 (stereo not drawn) have a reported composite Z-score of at least -0.0003?
0 (no)

Does COC(=O)[C@@]1(Cc2ccc(OC)cc2)[C@@H]2[C@@H](CC(=O)[C@H]2CC(=O)C(=O)N(C)C)CN1C(=O)c1ccccc1 have a reported composite Z-score of at least -0.0003?
1 (yes)

Does CCCCCN1CC=CC23O[C@@H]4/C=C\CCCOC(=O)C4[C@H]2C(=O)N(CCO)[C@@H]3C1=O (stereo partly drawn) have a reported composite Z-score of at least -0.0003?
1 (yes)

Does CCCCN1CC=CC23O[C@@H]4/C=C\CCCOC(=O)C4[C@H]2C(=O)N(CCCCCCO)[C@@H]3C1=O (stereo partly drawn) have a reported composite Z-score of at least -0.0003?
1 (yes)

Does [N-]=[N+]=NCc1ccccc1C[C@]1(C(=O)N2CCCCC2)COC(c2ccc(OCCCO)cc2)=N1 have a reported composite Z-score of at least -0.0003?
0 (no)

Does C=C(COC)C(=O)CC[C@H](OC(C)=O)c1ccccc1OCCO have a reported composite Z-score of at least -0.0003?
0 (no)

Does CC[C@@H](O[Si](C#C[Si](C(C)C)(C(C)C)C(C)C)(C(C)C)C(C)C)c1cn(Cc2cccc(Cl)c2)nn1 have a reported composite Z-score of at least -0.0003?
0 (no)

Does CN1C(=O)C2C=CC(C(O)COCc3ccccc3)N(Nc3ccc([N+](=O)[O-])cc3[N+](=O)[O-])C2C1=O (stereo not drawn) have a reported composite Z-score of at least -0.0003?
1 (yes)

Does Cc1ccc(S[C@]2(C(=O)NCc3ccccc3)CC(=O)N(Cc3ccccc3C(F)(F)F)[C@@H]2c2ccc(CO)cc2I)cc1 have a reported composite Z-score of at least -0.0003?
0 (no)

Does COC(=O)C(CC#Cc1ccc2c(c1)[C@]1(C(=O)N2)[C@H](C(=O)N2CCN(c3ncccn3)CC2)[C@H]2C(=O)O[C@H](c3ccccc3)[C@H](c3ccccc3)N2[C@@H]1c1ccc(O)cc1)C(=O)OC have a reported composite Z-score of at least -0.0003?
1 (yes)

Does CCOC(=O)C=C1C[C@@H](c2cccc([N+](=O)[O-])c2)O[C@@H](c2cccc([N+](=O)[O-])c2)O1 have a reported composite Z-score of at least -0.0003?
1 (yes)

Does CCCCC(=C=CC[C@H](O)c1cccc(OCCO)c1)C[C@H](O)c1cc(Cl)cc(Cl)c1O have a reported composite Z-score of at least -0.0003?
1 (yes)

Does C=CCNC(=O)[C@@H]1[C@H]2C(=O)O[C@H](c3ccccc3)[C@H](c3ccccc3)N2[C@H](c2ccc(OCCO)cc2)[C@@]12C(=O)Nc1ccc(C#CC3=CCCCC3)cc12 have a reported composite Z-score of at least -0.0003?
1 (yes)

Does C[C@]1(C(=O)O)c2ccccc2C(=O)N(Cc2cc(C(F)(F)F)cc(C(F)(F)F)c2)[C@H]1c1ccc(CO)cc1 have a reported composite Z-score of at least -0.0003?
1 (yes)

Does COC(=O)C1(CC(C)C)C=C2C(=C(C)C(=O)C2C)CN1 (stereo not drawn) have a reported composite Z-score of at least -0.0003?
1 (yes)

Does COc1ccc(CCNC(=O)[C@@H]2c3ccccc3C(=O)N(Cc3cc(F)cc(C(F)(F)F)c3)[C@H]2c2ccc(CO)cc2)cc1 have a reported composite Z-score of at least -0.0003?
0 (no)

* * *

Please go through the items and note down their composite z-score.
Target: Fibroblast growth factor 2 (Homo sapiens)
Assay: FGF2 binders on small-molecule microarrays, primary screen, biochemical, small-molecule microarray, 635/667 nm fluorescence (AID 1133)
Conditions: small-molecule microarray binding, FGF2, fluorescence 635/667; higher = more signal
Answer with a number only.

Form field composite z-score for item Cc1ccc(S(=O)(=O)N2[C@@H](c3ccccc3)C(C(=O)O)=C[C@H]2C(C)(C)C)cc1 on Fibroblast growth factor 2 (Homo sapiens): -0.0977

Form field composite z-score for item Cc1ccc(S(=O)(=O)N2[C@@H](c3ccccc3)C(C(=O)O)=CC[C@H]2c2ccc(F)cc2)cc1 on Fibroblast growth factor 2 (Homo sapiens): -1.34

Form field composite z-score for item COCCOC(=O)N1C(=O)[C@@]2(c3cc(C#CC4(O)CCCCCC4)ccc31)[C@H](C(N)=O)[C@H]1C(=O)O[C@H](c3ccccc3)[C@H](c3ccccc3)N1[C@@H]2c1ccc(OCCO)cc1 on Fibroblast growth factor 2 (Homo sapiens): 0.888

Form field composite z-score for item O=C1C2C=CC(C(O)C(c3ccccc3)c3ccccc3)N(Nc3ccccc3F)C2C(=O)N1c1ccccc1 (configuration not stated) on Fibroblast growth factor 2 (Homo sapiens): 0.158

Form field composite z-score for item O=C1O[C@H](c2ccccc2)[C@H](c2ccccc2)N2[C@H]1[C@@H](C(=O)O)[C@]1(C(=O)Nc3ccc(C#CC4(O)CCCCCC4)cc31)[C@H]2c1ccccc1OCCO on Fibroblast growth factor 2 (Homo sapiens): 0.435

Form field composite z-score for item CN1C(=O)C2C=CC(C(O)COCc3ccccc3)N(Nc3ccc([N+](=O)[O-])cc3[N+](=O)[O-])C2C1=O (configuration not stated) on Fibroblast growth factor 2 (Homo sapiens): 0.41

Form field composite z-score for item CC1(C)OB(/C=C\CC(OC(=O)c2ccncc2)c2ccccc2)OC1(C)C (configuration not stated) on Fibroblast growth factor 2 (Homo sapiens): -1.03

* * *

Test: binders of probe aFGF2 on microarray, primary screen, stem cell growth factor project, biochemical, small-molecule microarray, fluorescence 635/667 (AID 1067);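 also: measures binding of biotinylated aFGF2 protein to printed compounds on slides; z-score merges feature fluorescence and signal-to-noise across triplicate slides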
Conditions: higher = more signal
// map composite z-score onto a label; ranges band A (below -0.1), band B (-0.1 to below 0.05), band C (0.05 or more)

Which band does O=C1C2C=CC(C(O)C3CC=CCC3)N(Nc3ccc([N+](=O)[O-])cc3)C2C(=O)N1c1ccccc1 (stereo not given) fall in?
band C

Which band does CCOC(=O)C[C@H]1[C@H](OC(=O)c2ccc(-c3ccccc3)cc2)[C@@H](NC(=O)c2ccc(-c3ccccc3)cc2)c2cc(OCCCO)ccc2N1C(=O)c1ccccc1 fall in?
band B

Which band does O=C1c2ccccc2[C@@]2(Cc3ccccc3N(CC(F)(F)F)C2=O)[C@H](c2ccc(CO)cc2)N1Cc1ccccc1 fall in?
band A

Which band does CC[C@@H]1C=C(C(=O)O)[C@H](c2cccc(Cl)c2)N1S(=O)(=O)c1ccc(C)cc1 fall in?
band B

Which band does C=C(CCCC)/C(=C/C[C@@H](OC(C)=O)c1cccc(OCCO)c1)c1cc(C(=O)OC)ccc1OC fall in?
band A

Which band does [N-]=[N+]=Nc1ccccc1C[C@@]1(C(=O)NCC(O)CO)N=C(c2ccc(OCCCO)cc2)O[C@@H]1c1ccccc1N=[N+]=[N-] (stereo not given in full) fall in?
band C

Which band does C=CCNC(=O)[C@@H]1[C@H]2C(=O)O[C@H](c3ccccc3)[C@H](c3ccccc3)N2[C@H](c2ccc(O)cc2)[C@@]12C(=O)Nc1ccc(C#CC3=CCCCC3)cc12 fall in?
band B

Which band does COc1ccc(-c2cc3c(c(CCc4ccccc4)n2)[Si](C(C)C)(C(C)C)O[C@H]3c2ccccc2)cn1 fall in?
band B

Which band does COc1cc(Cc2cc3c(c(-c4ccccc4)n2)[Si](C(C)C)(C(C)C)OC3)cc(OC)c1OC fall in?
band A

Which band does CN(C)CCCC[C@@H]1NC(=O)[C@H]2C[C@@H](C(=O)NCCCCCCNC(=O)CS)[C@@H](c3cccc(OCCO)c3)N2C1=O fall in?
band A

Which band does COCCOC(=O)N1C(=O)[C@@]2(c3cc(C#CCC(C(=O)OC)C(=O)OC)ccc31)[C@H](C(N)=O)[C@H]1C(=O)O[C@H](c3ccccc3)[C@H](c3ccccc3)N1[C@@H]2c1ccccc1OCCO fall in?
band A

Which band does C#CCN(C(=O)OC(C)(C)C)[C@H](CO)c1ccccc1 fall in?
band A

Which band does COC(=O)C(CC#Cc1ccc2c(c1)[C@]1(C(=O)N2)[C@H](C(=O)N2CCCCCCC2)[C@H]2C(=O)O[C@H](c3ccccc3)[C@H](c3ccccc3)N2[C@@H]1c1ccc(OCCO)cc1)C(=O)OC fall in?
band C

Which band does C[C@]1(C(=O)O)c2ccccc2C(=O)N(Cc2cc(C(F)(F)F)cc(C(F)(F)F)c2)[C@H]1c1ccc(CO)cc1 fall in?
band A

Which band does COCCOC(=O)N1C(=O)[C@@]2(c3cc(C#CC4(O)CCCCCC4)ccc31)[C@H](C(N)=O)[C@H]1C(=O)O[C@H](c3ccccc3)[C@H](c3ccccc3)N1[C@@H]2c1ccc(OCCO)cc1 fall in?
band C

Which band does COCCOC(=O)N1C(=O)[C@@]2(c3ccccc31)[C@H](C(=O)Nc1nc3ccccc3s1)[C@H]1C(=O)O[C@H](c3ccccc3)[C@H](c3ccccc3)N1[C@@H]2c1ccccc1OCCO fall in?
band B

Which band does CCc1cccc(NC(=O)O[C@H]2[C@H](OC(=O)Nc3ccccc3-c3ccccc3)[C@H](OC(=O)Nc3ccccc3-c3ccccc3)[C@@H](OC)O[C@@H]2CO)c1 fall in?
band C

Which band does O=C(NCCN1CCOCC1)[C@@H]1c2ccccc2C(=O)N(CC23CC4CC(CC(C4)C2)C3)[C@H]1c1ccc(CO)cc1 fall in?
band B

Which band does C=C(C)C1CN([C@H](CO)c2ccccc2)C(=O)/C1=C\c1ccccc1 (stereo not given in full) fall in?
band A

Which band does COc1ccc(CCNC(=O)[C@@]2(c3ccc([N+](=O)[O-])cc3)CC(=O)N(C3CCCCC3)[C@@H]2c2ccc(CO)cc2I)cc1 fall in?
band C

Which band does CC(CO)N1C(=O)[C@@H]2[C@H]3C(=O)OCC=C[C@H]3OC23C=CCN(c2ccc4ccccc4c2)C(=O)[C@@H]13 (stereo not given in full) fall in?
band A

Which band does CCOC(=O)C1=CCC(c2ccncc2)N(S(=O)(=O)c2ccc(C)cc2)C1 (stereo not given) fall in?
band B

Which band does COc1cc(Cc2cc3c(c(CCc4ccccc4)n2)[Si](C(C)C)(C(C)C)O[C@H]3c2ccccc2)cc(OC)c1OC fall in?
band B

Which band does C=CCNC(=O)[C@@H]1[C@H]2C(=O)O[C@H](c3ccccc3)[C@H](c3ccccc3)N2[C@H](c2ccc(O)cc2)[C@@]12C(=O)N(C(=O)OCCOC)c1ccc(C#CCC(C(=O)OC)C(=O)OC)cc12 fall in?
band B

Which band does C=CC[C@]12N=C(c3ccc(OCCCO)cc3)O[C@H]1c1ccccc1N(CCC)C2=O fall in?
band C

Which band does C=CCNC(=O)[C@@H]1[C@H]2C(=O)O[C@H](c3ccccc3)[C@H](c3ccccc3)N2[C@H](c2ccc(OCCO)cc2)[C@@]12C(=O)Nc1ccc(C#CCNC(N)=O)cc12 fall in?
band A

Which band does COC(=O)[C@@]1(Cc2ccc(F)cc2)[C@H]2c3cc(C(=O)N(C)C)n(Cc4ccsc4Br)c3C[C@H]2CN1C(=O)c1ccccc1 fall in?
band C

Which band does C=CCC(OC(C)=O)[C@@H]1[C@@H](N(Cc2cccc3ccccc23)C(=O)c2ccc(C)cc2)c2cc(OCCCO)ccc2N1C(=O)Cc1ccc2ccccc2c1 (stereo not given in full) fall in?
band B
